Reported remaining at 240 h, 0.1 µM by item:
- assay-method-text: Chemical stability of the compound in phosphate buffer at pH 8 assessed as compound remaining at 0.1 uM after 240 hrs by RP-HPLC analysis
- Assay type: physicochemical
- experimental-context: read-out: Stability
Numeric answer only, unit % assumed.

- molecule: "COc1ccc2cc(C(C)C(=O)NCCCCC(NC(=O)C(C)c3ccc4cc(OC)ccc4c3)C(=O)NCCCCC(NC(=O)C(CCCCNC(=O)C(C)c3ccc4cc(OC)ccc4c3)NC(=O)C(C)c3ccc4cc(OC)ccc4c3)C(=O)NCCCCC(NC(=O)C(CCCCNC(=O)C(CCCCNC(=O)C(C)c3ccc4cc(OC)ccc4c3)NC(=O)C(C)c3ccc4cc(OC)ccc4c3)NC(=O)C(CCCCNC(=O)C(C)c3ccc4cc(OC)ccc4c3)NC(=O)C(C)c3ccc4cc(OC)ccc4c3)C(=O)OCc3ccccc3)ccc2c1 (stereo not drawn)"
  remaining at 240 h, 0.1 µM (%): 89.4
- molecule: "COc1ccc2cc(C(C)C(=O)OCCN(CCOC(=O)C(C)c3ccc4cc(OC)ccc4c3)CCC(=O)OCCN(CCOC(=O)CCN(CCOC(=O)C(C)c3ccc4cc(OC)ccc4c3)CCOC(=O)C(C)c3ccc4cc(OC)ccc4c3)CCC(=O)OCCN(CCOC(=O)CCN(CCOC(=O)CCN(CCOC(=O)C(C)c3ccc4cc(OC)ccc4c3)CCOC(=O)C(C)c3ccc4cc(OC)ccc4c3)CCOC(=O)CCN(CCOC(=O)C(C)c3ccc4cc(OC)ccc4c3)CCOC(=O)C(C)c3ccc4cc(OC)ccc4c3)CCC(=O)OCc3ccccc3)ccc2c1 (stereo not drawn)"
  remaining at 240 h, 0.1 µM (%): 79.4

Next up:
Problem: Fill in the blank: the reported remaining at 240 h, 0.1 µM of COc1ccc2cc(C(C)C(=O)OCC(COC(=O)C(C)c3ccc4cc(OC)ccc4c3)(COC(=O)C(C)c3ccc4cc(OC)ccc4c3)NC(=O)CCC(=O)OCC(COC(=O)CCC(=O)NC(COC(=O)C(C)c3ccc4cc(OC)ccc4c3)(COC(=O)C(C)c3ccc4cc(OC)ccc4c3)COC(=O)C(C)c3ccc4cc(OC)ccc4c3)(COC(=O)CCC(=O)NC(COC(=O)C(C)c3ccc4cc(OC)ccc4c3)(COC(=O)C(C)c3ccc4cc(OC)ccc4c3)COC(=O)C(C)c3ccc4cc(OC)ccc4c3)NC(=O)OCc3ccccc3)ccc2c1 (stereo not drawn) is ____.
Result: 79.4

Cited source: ChEMBL document CHEMBL2396524
